# Assay Explanation: AUC (0 to t) in mouse at 2 mg/kg, iv
# Assay type: ADME, organism-based
# Test Settings: in vivo
Readout Label: AUC(0-t) (ng·h/mL)
Only the number, expressed in ng·h/mL, is required.

Form: molecule = CCN(c1cc(-c2ccc(CN3CCOCC3)cc2)cc(C(=O)NCc2c(C)cc(C)[nH]c2=O)c1C)C1CCOCC1 ; AUC(0-t) = 2710

Form: molecule = CCN(c1cc(-c2ccc3c(c2)NC(=O)C32CCN(C)CC2)cc(C(=O)NCc2c(C)cc(C)[nH]c2=O)c1C)C1CCOCC1 ; AUC(0-t) = 1230

Form: molecule = CCN(c1cc(-c2ccc3c(c2)CCC3N2CCOCC2)cc(C(=O)NCc2c(C)cc(C)[nH]c2=O)c1C)C1CCOCC1 (stereo unspecified) ; AUC(0-t) = 1610

Form: molecule = CCN(c1cc(-c2ccc3c(c2)N(C)CC32CCOCC2)cc(C(=O)NCc2c(C)cc(C)[nH]c2=O)c1C)C1CCOCC1 ; AUC(0-t) = 949

Form: molecule = CCN(c1cc(-c2ccc3c(c2)NC(=O)C32CCOCC2)cc(C(=O)NCc2c(C)cc(C)[nH]c2=O)c1C)C1CCOCC1 ; AUC(0-t) = 331

Form: molecule = CCN1C(=O)C2(CCOCC2)c2ccc(-c3cc(C(=O)NCc4c(C)cc(C)[nH]c4=O)c(C)c(N(CC)C4CCOCC4)c3)cc21 ; AUC(0-t) = 818

----------
# Assay Explanation: Metabolic stability in dog liver microsomes assessed as half life
# Assay type: ADME, Canis lupus familiaris, Microsome
Readout Label: half-life (min)
Only the number, expressed in min, is required.

CCN(c1cc(-c2ccc3c(c2)CCC3N2CCOCC2)cc(C(=O)NCc2c(C)cc(C)[nH]c2=O)c1C)C1CCOCC1 (configuration not stated): 34.5

Form: compound = CCN(c1cc(-c2ccc(CN3CCOCC3)cc2)cc(C(=O)NCc2c(C)cc(C)[nH]c2=O)c1C)C1CCOCC1 ; half-life = 20.8

----------
# Assay Explanation: Drug concentration in human KARPAS-422 cells harboring EZH2 Y641N mutant xenografted in mouse at 100 mg/kg, po measured after 8 hrs
# Assay type: ADME, organism-based
# Test Settings: KARPAS-422 xenograft tumour, read-out: Ct
Readout Label: concentration at 8 h (ng/mL)
Only the number, expressed in ng/mL, is required.

Form: compound = CCN(c1cc(-c2ccc(CN3CCOCC3)cc2)cc(C(=O)NCc2c(C)cc(C)[nH]c2=O)c1C)C1CCOCC1 ; concentration at 8 h = 416

Form: compound = CCN(c1cc(-c2ccc3c(c2)CCC3N2CCOCC2)cc(C(=O)NCc2c(C)cc(C)[nH]c2=O)c1C)C1CCOCC1 (configuration not stated) ; concentration at 8 h = 9520

----------
# Assay Explanation: Drug concentration in human KARPAS-422 cells harboring EZH2 Y641N mutant xenografted in mouse at 100 mg/kg, po measured after 4 hrs
# Assay type: ADME, organism-based
# Test Settings: KARPAS-422 xenograft tumour, read-out: Ct
Readout Label: concentration at 4 h (ng/mL)
Only the number, expressed in ng/mL, is required.

CCN(c1cc(-c2ccc3c(c2)CCC3N2CCOCC2)cc(C(=O)NCc2c(C)cc(C)[nH]c2=O)c1C)C1CCOCC1 (configuration not stated): 8580

The record that follows has no concentration at 4 h shown yet.
Form: compound = CCN(c1cc(-c2ccc(CN3CCOCC3)cc2)cc(C(=O)NCc2c(C)cc(C)[nH]c2=O)c1C)C1CCOCC1 ; concentration at 4 h = 2340

Every entry's value here was drawn from ChEMBL document CHEMBL5584208.
